test system: IL-6 in A549 cells stimulated with IL-1β; test: A549 Cell Assay to Measure Inflammation Markers (inhibition of IL-1β-induced IL-6); assay type: cell-based; conditions: Homo sapiens, A549, A549 Cell Assay to Measure Inflammation Markers; intrinsic activity, Emax class ranges
assay.readout: Emax

I am curious: what Emax value has been reported for Cc1cc(Cl)ccc1[C@H]1S[C@@H](CCO)CNc2c1c(-c1ccccn1)nn2C (single isomer, unassigned) [M.10] ?
< 50%

What does the record list as Emax for Cc1cc(Br)sc1C1SCCNc2c1c(-c1ccccn1)nn2C (centres unmarked) [D.26] ?
< 50%

What value of measured Emax is listed for COc1cc(Cl)ccc1C1SCCNc2c1c(-c1ccccn1)nn2C (centres unmarked) [D.5] ?
< 50%

Returns the measured Emax for the input molecule. Input: Cn1nc(-c2ccccn2)c2c1NCCS[C@@H]2c1ccc(Br)cc1Cl (single isomer, unassigned) [M.1]
< 50%

Return reported Emax; argument: Cc1cc(S(C)(=O)=O)ccc1C1SC(C)(C)CNc2c1c(C)nn2C (centres unmarked) [D.71]
< 50%

Entry CCn1nc(-c2ccccn2)c2c1NCCSC2c1ccc(C(=O)Nc2cccnc2C)cc1C (single isomer, unassigned) [M.62] : reported Emax = ?
> 70%

# get_value(readout='Emax', item= Cc1cc(CCC(C)(C)O)ccc1[C@@H]1SC[C@@H](C)Nc2c1c(-c1ccccn1)nn2C (single isomer, unassigned) [M.44] )
> 60%

For Cn1nc(C2CC2)c2c1NCC(C)(C)SC2c1ccc(Cl)cc1F (centres unmarked) [D.53] , what is its reported Emax?
< 50%

---

Target: UniProt:P04150
Sequence (P04150 1-777): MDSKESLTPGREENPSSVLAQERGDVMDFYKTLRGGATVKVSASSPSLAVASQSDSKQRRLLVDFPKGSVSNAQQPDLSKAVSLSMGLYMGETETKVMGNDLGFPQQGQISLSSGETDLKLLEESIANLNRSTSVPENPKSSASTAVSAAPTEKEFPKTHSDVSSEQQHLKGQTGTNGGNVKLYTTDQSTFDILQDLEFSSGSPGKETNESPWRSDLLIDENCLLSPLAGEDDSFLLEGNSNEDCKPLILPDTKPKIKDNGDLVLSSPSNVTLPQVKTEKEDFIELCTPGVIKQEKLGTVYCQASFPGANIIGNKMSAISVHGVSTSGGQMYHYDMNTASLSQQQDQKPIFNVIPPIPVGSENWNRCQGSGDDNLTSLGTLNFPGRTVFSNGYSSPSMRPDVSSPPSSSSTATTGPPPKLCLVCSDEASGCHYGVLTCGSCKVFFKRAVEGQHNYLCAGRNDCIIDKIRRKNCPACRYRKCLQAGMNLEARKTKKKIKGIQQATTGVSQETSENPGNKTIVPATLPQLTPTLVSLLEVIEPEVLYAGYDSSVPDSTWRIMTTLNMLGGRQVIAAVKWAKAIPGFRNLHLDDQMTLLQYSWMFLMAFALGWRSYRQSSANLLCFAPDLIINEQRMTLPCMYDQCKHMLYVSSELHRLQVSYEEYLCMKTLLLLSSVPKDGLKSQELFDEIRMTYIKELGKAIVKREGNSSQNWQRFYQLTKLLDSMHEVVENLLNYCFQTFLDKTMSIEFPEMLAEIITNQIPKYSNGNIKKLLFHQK
pIC50: −log10 of the molar value.
assay.readout: pIC50

Find the recorded pIC50 belonging to Cc1nn(C)c2c1C(c1ccccn1)SCCN2 (stereo not drawn) and report it.
< 5.00

Look up pIC50 for this compound: Cc1cc(CCCO)ccc1[C@@H]1SC[C@H](C)Nc2c1c(-c1ccccn1)nn2C (single isomer, unassigned)
> 7.00

Fill blank: measured pIC50 of the compound Cc1ncccc1NC(=O)N1CCC(C2SCCNc3c2c(-c2ccccn2)nn3C)CC1 (stereo not drawn) is ____.
< 5.00

// query pIC50 value for entry Cc1ccc(C#N)cc1C1SCCNc2c1c(-c1ccccn1)nn2C (stereo not drawn)
6.00 to 7.00

Give its pIC50 value. Item: CCn1nc(-c2ccccn2)c2c1NCCSC2c1ccc(C(=O)Nc2cccnc2C)cc1C (single isomer, unassigned) [M.61]
6.00 to 7.00

Param item = Cc1ccc(C(=O)Nc2cccnc2C)cc1C1SCCNc2c1c(-c1ccccn1)nn2C (stereo not drawn) ; retrieve measured pIC50.
< 5.00

Consider the compound Cc1cc(Br)ccc1[C@H]1SC[C@H](C(F)(F)F)Nc2c1c(-c1ccccn1)nn2C (racemic) and give its measured pIC50.
6.00 to 7.00

Which pIC50 reading was recorded for the compound CC(C)Cc1nn(C)c2c1C(c1ccc(Cl)cc1Cl)SCCN2 (stereo not drawn) ?
> 7.00

I'd like to know its pIC50. The compound in question is Cc1cc(C(=O)Nc2cccnc2C)ccc1[C@@H]1SC[C@H](C)Nc2c1c(-c1ccncn1)nn2C (single isomer, unassigned)
> 7.00

So what does the record say about pIC50 for Cn1nc(-c2ccccn2)c2c1NCCSC2c1ccc(-c2ccnnc2)cc1Cl (stereo not drawn) ?
5.00 to 6.00

Can you share its pIC50? I mean this compound: COC(=O)c1ccc(C)c(C2SCCNc3c2c(-c2ccccn2)nn3C)c1 (stereo not drawn)
< 5.00

Report pIC50 for Cc1cc(CCC(C)(C)O)ccc1[C@H]1SC[C@@H](C)Nc2c1c(-c1ccccn1)nn2C (single isomer, unassigned) please.
5.00 to 6.00

// pIC50 lookup, key: Cn1nc(-c2ccccn2)c2c1NCCS[C@@H]2c1ccc(Br)cc1Cl (single isomer, unassigned)
6.00 to 7.00

Name the reported pIC50 value associated with the compound CCn1nc(-c2ccccn2)c2c1NCCSC2c1ccc(C(=O)Nc2nnc(C)s2)cc1C (stereo not drawn)
> 7.00

Recorded pIC50 for Cc1cc(C#CCCO)ccc1[C@H]1SC[C@@H](C)Nc2c1c(-c1ccccn1)nn2C (single isomer, unassigned) , please?
6.00 to 7.00

Fill blank: measured pIC50 of the compound CCn1nc(-c2ccccn2)c2c1N[C@@H](C)CS[C@H]2c1ccc(CCC(C)(C)O)cc1C (single isomer, unassigned) is ____.
> 7.00

pIC50 for CCn1nc(-c2ccccn2)c2c1N[C@@H](C)CS[C@H]2c1ccc(CCCO)cc1C (single isomer, unassigned) ?
> 7.00

Entry Cn1nc(C(C)(C)C)c2c1NCCSC2c1ccc(Cl)cc1Cl (stereo not drawn) has what pIC50?
6.00 to 7.00

Quick check: pIC50 of Cc1cc(C#N)ccc1[C@@H]1S[C@@H](C)CNc2c1c(C1CC1)nn2C (racemic) ?
> 7.00

Need pIC50, item Cc1cc(Cl)ccc1[C@H]1SC[C@@H](C)Nc2c1c(C)nn2C (racemic)
> 7.00

# lookup: pIC50 of Cn1nc(-c2ccccn2)c2c1NCCSC2c1ccc(C(=O)Nc2cccnc2)cc1Cl (stereo not drawn)
6.00 to 7.00

Fill blank: measured pIC50 of the compound Cc1ccc(Cl)cc1C1SCCNc2c1c(-c1ccccn1)nn2C (stereo not drawn) is ____.
> 7.00

Report pIC50 for Cc1cc(Cl)ccc1[C@@H]1S[C@@H](CCO)CNc2c1c(C)nn2C (single isomer, unassigned) please.
5.00 to 6.00

Fill in: pIC50 of Cn1nc(-c2cccnc2)c2c1NCCSC2c1ccc(Cl)cc1Cl (stereo not drawn) is ___
5.00 to 6.00

I'd like to know its pIC50. The compound in question is Cc1cc(Cl)ccc1[C@@H]1S[C@@H](CCO)CNc2c1c(-c1ccccn1)nn2C (single isomer, unassigned)
> 7.00

Which pIC50 value is on record for Cc1cc(C(=O)Nc2cccnc2C)ccc1C1SCC(CO)Nc2c1c(-c1ccccn1)nn2C (single isomer, unassigned) ?
5.00 to 6.00

Tell me the measured pIC50 of CCn1nc(-c2ccccn2)c2c1N[C@@H](C)CS[C@@H]2c1ccc(CCC(C)(C)O)cc1C (single isomer, unassigned) , please.
6.00 to 7.00

Name the reported pIC50 value associated with the compound Cn1nc(-c2ccccn2)c2c1NCCSC2c1ccc(-c2cnc(N3CCOCC3)nc2)cc1Cl (stereo not drawn)
5.00 to 6.00

Fill in: pIC50 of Cc1cc(Cl)ccc1C1SCCNc2c1c(O)nn2C (stereo not drawn) is ___
< 5.00

Please report the recorded pIC50 for CCn1nc(-c2ccccn2)c2c1N[C@@H](C)CS[C@H]2c1ccc(C(N)=O)cc1C (single isomer, unassigned) .
> 7.00

Any idea what its pIC50 is? The compound is Cc1cc(C(=O)Nc2cccnc2C)ccc1C1SC(C)(C)CNc2c1c(C)nn2C (stereo not drawn)
5.00 to 6.00

// returns reported pIC50 for input Cc1cc(Br)ccc1[C@H]1SC[C@@H](C(F)(F)F)Nc2c1c(-c1ccccn1)nn2C (racemic)
> 7.00

Endpoint output: pIC50 of Cc1cc(-c2nn(C)c3c2C(c2ccc(Cl)cc2C)SCCN3)no1 (stereo not drawn) . Value?
> 7.00
